Cited source: paper PMC8391104

target_desc: T1, Mad1^CTD QRI triple mutant (Q627A, R650A, I643A) (human, UniProt Q9Y6D9 597-718, Q627A | I643A | R650A)
T1 construct: also called triple alanine mutant; source: E. coli Rosetta 2 (DE3), purified (Strep-Tactin, TEV cleavage, Resource Q, Superdex 75); not shown: double Strep, N-terminal, cleaved; His6, N-terminal, cleaved
T1 sequence (looked up): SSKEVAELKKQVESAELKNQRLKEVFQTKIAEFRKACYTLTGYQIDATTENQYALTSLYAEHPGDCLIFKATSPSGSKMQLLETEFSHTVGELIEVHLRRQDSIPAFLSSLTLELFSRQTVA
measurement_protocol: ITC; Bub1^CD1 peptide (0.3-1.5 mM) titrated into Mad1 (30-100 µM) in the cell; 20°C; 20 mM HEPES pH 7.5, 100 mM NaCl, 1 mM TCEP; single-site model; stoichiometry counted on dimeric Mad1^CTD
protocol_conditions: both partners purified
Where no end group is shown, it is not given here. [ ]: non-standard residue; d: D form. pT = C[C@@H](OP(=O)(O)O)[C@H](N)C(=O)O; pS = N[C@@H](COP(=O)(O)O)C(=O)O
parameter: Kd (µM)
Numeric answer only, unit µM assumed.

Q: Entry KVQP[pS]P[pT]VHTKEALGFIMNMFQAPTS (Bub1 conserved domain 1 (CD1), human, stated as residues 455-479; also called pSer459-pThr461 peptide; source: synthetic peptide (Designer Bioscience UK, 95% purity)) [doubly phosphorylated Bub1^CD1 peptide (pSer459-pThr461)] has what Kd?
A: 14.5
